target: ABL1 (Homo sapiens, UniProt P00519); test: Kinase selectivity panel: ABL1; type: biochemical
Sequence (P00519 whole entry, species assumed): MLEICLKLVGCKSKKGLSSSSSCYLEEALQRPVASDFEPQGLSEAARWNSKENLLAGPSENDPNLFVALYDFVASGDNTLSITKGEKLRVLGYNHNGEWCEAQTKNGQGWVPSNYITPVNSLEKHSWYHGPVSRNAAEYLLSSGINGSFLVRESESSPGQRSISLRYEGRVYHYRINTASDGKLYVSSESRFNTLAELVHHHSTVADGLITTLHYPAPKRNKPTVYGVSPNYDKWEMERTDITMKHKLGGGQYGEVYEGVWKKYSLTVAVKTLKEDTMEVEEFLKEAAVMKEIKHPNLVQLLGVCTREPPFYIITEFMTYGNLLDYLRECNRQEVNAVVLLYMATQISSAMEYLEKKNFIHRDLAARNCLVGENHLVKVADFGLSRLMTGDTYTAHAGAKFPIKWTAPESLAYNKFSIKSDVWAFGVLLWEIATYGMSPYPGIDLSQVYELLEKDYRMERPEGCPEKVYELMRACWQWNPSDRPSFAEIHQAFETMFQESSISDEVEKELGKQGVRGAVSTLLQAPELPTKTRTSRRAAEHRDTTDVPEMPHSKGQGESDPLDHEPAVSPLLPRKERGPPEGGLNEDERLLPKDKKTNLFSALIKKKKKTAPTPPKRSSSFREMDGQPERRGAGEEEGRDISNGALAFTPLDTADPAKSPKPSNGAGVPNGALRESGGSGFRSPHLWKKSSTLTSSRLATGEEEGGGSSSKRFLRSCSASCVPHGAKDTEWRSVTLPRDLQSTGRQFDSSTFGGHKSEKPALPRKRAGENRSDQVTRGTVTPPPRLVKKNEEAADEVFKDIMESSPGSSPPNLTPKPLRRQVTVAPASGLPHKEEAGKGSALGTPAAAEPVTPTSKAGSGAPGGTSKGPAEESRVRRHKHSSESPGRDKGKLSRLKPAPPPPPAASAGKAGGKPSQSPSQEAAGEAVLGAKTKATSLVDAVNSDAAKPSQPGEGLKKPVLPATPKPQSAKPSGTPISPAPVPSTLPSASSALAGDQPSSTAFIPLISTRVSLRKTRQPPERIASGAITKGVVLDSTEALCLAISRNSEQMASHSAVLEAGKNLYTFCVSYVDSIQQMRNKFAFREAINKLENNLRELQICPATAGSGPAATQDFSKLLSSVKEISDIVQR
pIC50: −log10 of the molar value.
Endpoint: pIC50

>>> observed("COc1ccc2c(c1)/C(=C/c1cnc(C3CCOCC3)[nH]1)C(=O)N2")
"< 5.00"
>>> observed("COc1ccc2c(c1)/C(=C/c1cnc(C(C)C)[nH]1)C(=O)N2")
"< 5.00"
>>> observed("COc1ccc2c(c1)/C(=C/c1cnc(C(C)(C)C)[nH]1)C(=O)N2")
"< 5.00"

* * *

target: CAMK2D (Homo sapiens, UniProt Q13557)
Sequence (Q13557 whole entry, species assumed): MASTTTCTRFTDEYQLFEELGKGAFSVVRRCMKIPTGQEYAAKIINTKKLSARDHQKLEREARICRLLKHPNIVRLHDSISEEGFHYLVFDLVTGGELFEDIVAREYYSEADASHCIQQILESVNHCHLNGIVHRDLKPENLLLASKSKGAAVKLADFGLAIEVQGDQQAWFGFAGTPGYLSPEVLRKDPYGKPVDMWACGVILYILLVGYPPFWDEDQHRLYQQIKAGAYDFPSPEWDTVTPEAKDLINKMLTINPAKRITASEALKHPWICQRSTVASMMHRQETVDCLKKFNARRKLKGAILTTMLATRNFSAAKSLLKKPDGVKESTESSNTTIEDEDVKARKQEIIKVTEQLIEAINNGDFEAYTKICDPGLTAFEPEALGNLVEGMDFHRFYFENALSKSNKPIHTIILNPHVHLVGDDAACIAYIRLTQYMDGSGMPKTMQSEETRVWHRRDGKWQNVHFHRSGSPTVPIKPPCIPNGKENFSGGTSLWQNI
pIC50: −log10 of the molar value.
Endpoint: pIC50

>>> observed("COc1ccc2c(c1)/C(=C/c1cnc(C(C)C)[nH]1)C(=O)N2 [Compound 12]")
6.56
